Values from paper PMC4324353

# System Under Test: actin filaments (polymerized A. castellani actin) (A. castellani)
# Measurement Protocol: steady state polymerization titration
Result Type: pKd
Friendly reminder that pKd comes from taking -log10 of the concentration in mol/L.

// query Report measured pKd; entry is KKDAHAMILEFIRSRPPLKKA (domain or fragment, modifications not checked) [Spir third WH2 domain (Spir-C, SC)]
// result 5.70
